- method: Volume of distribution at steady state in Han Wistar rat
- Assay type: ADME, organism-based
- conditionsUsed: in vivo, read-out: Vdss
measuredAttribute: Vd (L/kg)

chemicalString	unitsText	Vd
NC1(c2ccc(-c3ncc4cnccc4c3-c3ccccc3)cc2)CCC1	L/kg	0.3
NC1(c2ccc(-c3ncc4nccn4c3-c3ccccc3)cc2)CCC1	L/kg	10.3
NC1(c2ccc(-c3nc4ccccc4cc3-c3ccccc3)cc2)CCC1	L/kg	3.1

[I] NC1(c2ccc(-c3nn4ccnc4cc3-c3ccccc3)cc2)CCC1
[II] NC1(c2ccc(-c3nn4ccccc4c3-c3ccccc3)cc2)CCC1
## Task Identify the item whose Vd is the smaller number: I or II Choose, then provide that item's label.
## Result I
